All figures here come from the supplement of paper PMC7877785.

# METHOD_DESCRIPTION: self-splicing fitness, log relative to wild type (ln ratio); higher = more splicing; Tetrahymena group I intron in knt gene, E. coli kanamycin selection, DiMSum; sequences stand for … in CUCUCU…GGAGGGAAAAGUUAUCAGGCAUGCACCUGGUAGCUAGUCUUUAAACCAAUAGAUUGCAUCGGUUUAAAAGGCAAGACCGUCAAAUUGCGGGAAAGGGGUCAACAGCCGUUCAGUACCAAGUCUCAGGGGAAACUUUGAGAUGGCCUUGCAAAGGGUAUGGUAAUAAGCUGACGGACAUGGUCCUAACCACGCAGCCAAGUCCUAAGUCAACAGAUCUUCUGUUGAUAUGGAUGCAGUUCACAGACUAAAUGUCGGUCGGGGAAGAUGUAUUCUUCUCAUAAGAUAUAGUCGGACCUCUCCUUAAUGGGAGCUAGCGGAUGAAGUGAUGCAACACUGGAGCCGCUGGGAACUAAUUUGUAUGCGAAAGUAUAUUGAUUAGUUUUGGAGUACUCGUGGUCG;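 further: selection with 25 µg/mL kanamycin versus none on LB agar overnight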
# CONDITION_PARAMETERS: 37 °C
Below is a list of entries, each paired with its recorded self-splicing fitness (ln) value.

| SEQ_TEXT | self-splicing fitness (ln) |
| --- | --- |
| CGCUAGCAAUAUUACGUUGC | -2.98 |
| ACGAAGCAAUAUUACGAGGG | -3.26 |
| GUCCAGCAAUAUUACGCGCC | -0.848 |
| GAGAAGCAAUAUUACGCCUA | -1.03 |
| CCGGAGCAAUAUUACGCGAU | -2.62 |
| GUGCAGCAAUAUUACGACUC | 0.542 |
| CCGCAGCAAUAUUACGCCGA | -1.42 |
| ACUAAGCAAUAUUACGGGAG | -1.88 |
| CCCGAGCAAUAUUACGACAG | -2.46 |
| GGAGAGCAAUAUUACGUGGC | -1.63 |
| UUACAGCAAUAUUACGUGAC | -1.81 |
| AUCGAGCAAUAUUACGUGGU | -2.72 |
| CACUAGCAAUAUUACGGCUG | 0.114 |
| GCCUAGCAAUAUUACGUGAA | 0.346 |
| GCCAAGCAAUAUUACGACAC | -0.0161 |
| GCACAGCAAUAUUACGAUAC | -0.488 |
| AUUAAGCAAUAUUACGGCAG | 0.0222 |
| ACGCAGCAAUAUUACGAGAG | -1.78 |
| AGCCAGCAAUAUUACGUCUG | -1.94 |
| GGUUAGCAAUAUUACGCCCG | -1.55 |
| UGCCAGCAAUAUUACGUCAG | -1.53 |
| CGGCAGCAAUAUUACGGAGG | -0.0971 |
| CUUCAGCAAUAUUACGAGCA | -2.16 |
| GGUCAGCAAUAUUACGUGAU | -2.14 |
| CUUCAGCAAUAUUACGGAUG | -0.191 |
| UUCCAGCAAUAUUACGGACG | 0.421 |
| AGAGAGCAAUAUUACGGUGG | -3.44 |
| GCUCAGCAAUAUUACGCGCA | -0.106 |
| ACGAAGCAAUAUUACGCCCU | 0.19 |
| UUCAAGCAAUAUUACGGGCC | -2.94 |
| GUAAAGCAAUAUUACGAAGU | -0.327 |
| AAACAGCAAUAUUACGGGUA | -1.31 |
| CUUUAGCAAUAUUACGAAAU | -1.99 |
| ACUUAGCAAUAUUACGCGAA | -2.14 |
